# Experimental System: BCAT2 (Homo sapiens)
# Sequence (O15382 28-392): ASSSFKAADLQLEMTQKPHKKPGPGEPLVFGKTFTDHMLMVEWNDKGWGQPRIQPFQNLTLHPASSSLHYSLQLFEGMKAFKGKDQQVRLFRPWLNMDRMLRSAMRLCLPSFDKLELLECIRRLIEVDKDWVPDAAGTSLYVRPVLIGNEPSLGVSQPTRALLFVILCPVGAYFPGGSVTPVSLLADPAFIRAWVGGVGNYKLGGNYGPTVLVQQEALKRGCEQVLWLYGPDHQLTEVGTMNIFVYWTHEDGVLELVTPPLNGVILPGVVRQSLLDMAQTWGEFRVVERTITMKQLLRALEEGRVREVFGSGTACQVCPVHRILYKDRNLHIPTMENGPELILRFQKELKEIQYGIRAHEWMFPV
# Protocol: BCAT2 in vitro cell inhibition using engineered A549 cells (KMV cell assay, 13C6-KMV by LC-MS/MS)
# Assay type: cell-based
# Design: The result was an engineered A549 cell line that expressed endogenous BCAT2; endogenous in cells; host or cells: A549 cells with MUT and BCAT1 knocked out by CRISPR/CAS9; key: A: less than or equal to 0.100 μM; B: greater than 0.100 and less than or equal to 0.500 μM; C: greater than 0.500 and less than or equal to 1.000 μM; d: greater than 1.000 μM; E: no fit
# Settings: average where tested multiple times
Observed Property: BCAT2 Cell Inhibition

Incoming: Entry CC(C)Cc1nc2cnc(N3CCC[C@H]3C(C)(C)O)cc2n1[C@@H]1CCC[C@H](NC(=O)c2ncc(Cl)s2)C1 has what BCAT2 Cell Inhibition?
Outgoing: E

Incoming: What would you report for CO[C@@H]1[C@H](NC(=O)c2ncc(Cl)s2)CCC[C@@H]1n1c(-c2ccccc2F)nc2cnc(-c3nc[nH]n3)cc21 ?
Outgoing: E

Incoming: Consider next the compound O=C(N[C@@H]1C[C@@H](O)C[C@H](n2c(-c3ccccc3F)nc3cnc(F)cc32)C1)c1ncc(Cl)s1 in the same way.
Outgoing: E
